This listing pairs compounds with measured TGI.
test system: EKVX NSCLC; assay: NCI tumour cell line growth inhibition, 48 h

Inquiry: Retrieve TGI on EKVX NSCLC; query `CC(C)=CCC/C(C)=C/CC/C(C)=C/CSc1ccc(Cl)cc1C(=O)O`
Reply text: 37 µM

Inquiry: Retrieve TGI on EKVX NSCLC; query C#CC#CC#CC#CC#CC#CC#CC#CCC1OC[C@H](COC(=O)O[C@@H](C(=O)O[C@H]2C[C@@]3(O)[C@@H](OC(=O)c4ccccc4)[C@@H]4[C@]5(OC(C)=O)CO[C@@H]5C[C@H](O)[C@@]4(C)C(=O)[C@H](OC(C)=O)C(=C2C)C3(C)C)[C@@H](NC(=O)c2ccccc2)c2ccccc2)O1 (stereo not given in full)
Reply text: > 33.3 µM

Inquiry: Retrieve TGI on EKVX NSCLC; query `CCCCCCCCCC(=O)N[C@H]1CCc2cc(OC)c(OC)c(OC)c2-c2ccc(SC)c(=O)cc21`
Reply text: 9.55 µM

Inquiry: Retrieve TGI on EKVX NSCLC; query c1ccc2nn(C3CCCCO3)nc2c1 (stereo not given)
Reply text: > 100 µM

Inquiry: Retrieve TGI on EKVX NSCLC; query `CN(/N=C/c1ccc(Cl)c(Cl)c1)C1=NCCN1`
Reply text: > 100 µM

Inquiry: Retrieve TGI on EKVX NSCLC; query CC(=O)OC1C(O)C(C)OC(OC(=O)C2CCC3C(C2)OC2(CC(OC(=O)/C=C/c4ccccc4)C(C)CO2)C32CO2)C1OC1OC(C)C(O)C(O)C1O (stereo not given)
Reply text: 0.246 µM

Inquiry: Retrieve TGI on EKVX NSCLC; query C[C@@]12CCC[C@@](C)(C(=O)O)C1CC[C@@]13CC(=O)[C@@](CO)(CCC12)C3 (stereo not given in full)
Reply text: > 100 µM

Inquiry: Retrieve TGI on EKVX NSCLC; query `COc1c(Cl)c(Cl)c(OC)c2c1C(=O)C=CC2=O`
Reply text: 31.8 µM

Inquiry: Retrieve TGI on EKVX NSCLC; query `CCOC(=O)c1ccc(NC(NC(=O)CC)(C(F)(F)F)C(F)(F)F)cc1`
Reply text: > 100 µM

Inquiry: Retrieve TGI on EKVX NSCLC; query CCCN1C(=O)/C(=C(/O)C(=O)OCC)C(c2ccc(OC)c(OC)c2)C1=O (stereo not given)
Reply text: > 100 µM

Let's switch to this compound now.
Inquiry: Retrieve TGI on EKVX NSCLC; query `OCCNc1nc2c(N3CCCC3)nc(N3CCNCC3)nc2nc1NCc1ccccc1`
Reply text: 26.9 µM

---

tested on: SF-268 CNS; assay: NCI tumour cell line growth inhibition, 48 h; in the data active means GI50 below about 0.43 µM; inactive means the rest
Entry note: the call must match one of y (active), n (inactive)

Inquiry: For this compound, state the assay outcome: `CN(C)CCCC(=O)Nc1ccc(Cn2nnc3c2C(=O)c2nnn(Cc4ccc(NC(=O)CCCN(C)C)cc4)c2C3=O)cc1`
Reply text: n

Inquiry: For this compound, state the assay outcome: COc1cccc(C2C(C#N)=C(N)Oc3cc(OC)ccc32)c1 (stereo not drawn)
Reply text: y

Inquiry: For this compound, state the assay outcome: `CC(C)(C)n1cc(-c2ccnc(NCCNS(=O)(=O)c3cccc4ccccc34)c2)c(-c2cccc(F)c2)n1`
Reply text: n

---

This listing pairs molecules with measured TGI.
system: RXF 393 renal; test: NCI tumour cell line growth inhibition, 48 h
Reply with just the number (in µM).

Inquiry: Identify measured TGI corresponding to `O=[N+]([O-])c1ccc(-[n+]2ccc3ccccc3c2)c([N+](=O)[O-])c1`
Reply text: 3.83

Inquiry: Identify measured TGI corresponding to `N#CI1OC(C(F)(F)F)(C(F)(F)F)c2ccccc21`
Reply text: 32.4

Inquiry: Identify measured TGI corresponding to `COC(=O)[C@]12CC[C@@H](C)[C@H](C)[C@@H]1C1=CC[C@@H]3[C@@]4(C)C=C(O)C(=O)C(C)=C4CC[C@@]3(C)[C@]1(C)CC2`
Reply text: 27.9

Inquiry: Identify measured TGI corresponding to `CN(C)CCNC(=O)c1cccc2c1nc(-c1ccccn1)c1ccccc12`
Reply text: 29.2

Inquiry: Identify measured TGI corresponding to `O=Cc1cc(O)c(O)c(/C=N/n2c3ccccc3c3ccccc32)c1`
Reply text: 23.5

Next:
Inquiry: Identify measured TGI corresponding to `Oc1ccc(-c2nc3ccc4[nH]ncc4c3c3c2CCCC3)c2cccnc12`
Reply text: 2.44

Inquiry: Identify measured TGI corresponding to `Cc1ccccc1NC(=O)c1sc2nc3c(cc2c1N)C(=O)CCC3`
Reply text: 5.65
